measurement description: Single dose pharmacokinetics in mice
Assay type: in vivo, mouse
details: female, heterozygous Foxn1nu/Foxn1+, mouse, plasma, iv, 4 mg/kg

# compound, half-life
measured = [
    ("COc1ccc(C2=Nn3c(nnc3-c3cc(-c4ccc(Cl)cc4)n[nH]3)SC2C)cc1 (stereo not shown)", "36 min"),
]

* * *

measurement description: Single dose pharmacokinetics in mice
Format: in vivo, mouse
details: female, heterozygous Foxn1nu/Foxn1+, mouse, muscle, po, 30 mg/kg, Cmax, mice, PO 30 mg/kg suspension in 1% CMC, muscle

# compound, Cmax, ng/mL
measured = [
    ("COc1ccc(C2=Nn3c(nnc3-c3cc(-c4ccc(Cl)cc4)n[nH]3)SC2C)cc1 (stereo not shown) [UPCDC-10205]", 189),
]

* * *

measurement description: Single dose pharmacokinetics in mice
Assay type: in vivo, mouse
details: female, heterozygous Foxn1nu/Foxn1+, mouse, kidney, po, 4 mg/kg
quantity name: Tmax

# compound, recorded value
measured = [
    ("COc1ccc(C2=Nn3c(nnc3-c3cc(-c4ccc(Cl)cc4)n[nH]3)SC2C)cc1 (stereo not shown)", "30 min"),
]

* * *

measurement description: Single dose pharmacokinetics in mice
Format: in vivo, mouse
details: female, heterozygous Foxn1nu/Foxn1+, mouse, muscle, po, 30 mg/kg

# compound, AUC(0-t)
rows = [
    ("COc1ccc(C2=Nn3c(nnc3-c3cc(-c4ccc(Cl)cc4)n[nH]3)SC2C)cc1 (stereo not shown) [UPCDC-10205]", "140 ng·h/mL"),
]

* * *

measurement description: Single dose pharmacokinetics in mice
Format: in vivo, mouse
details: female, heterozygous Foxn1nu/Foxn1+, mouse, plasma, po, 30 mg/kg

# molecule, AUC(0-t) / ng·h/mL
records = [
    ("COc1ccc(C2=Nn3c(nnc3-c3cc(-c4ccc(Cl)cc4)n[nH]3)SC2C)cc1 (stereo not shown)", 25.7),
]

* * *

measurement description: Single dose pharmacokinetics in mice
Type: in vivo, mouse
details: female, heterozygous Foxn1nu/Foxn1+, mouse, kidney, iv, 4 mg/kg

# compound, AUC(0-t) / ng·h/mL
measured = [
    ("COc1ccc(C2=Nn3c(nnc3-c3cc(-c4ccc(Cl)cc4)n[nH]3)SC2C)cc1 (stereo not shown)", 3240),
]

* * *

measurement description: Single dose pharmacokinetics in mice
Assay type: in vivo, mouse
details: female, heterozygous Foxn1nu/Foxn1+, mouse, liver, po, 4 mg/kg, Cmax, mice, PO 4 mg/kg in 10% Solutol HS, liver

# molecule, Cmax / ng/mL
data = [
    ("COc1ccc(C2=Nn3c(nnc3-c3cc(-c4ccc(Cl)cc4)n[nH]3)SC2C)cc1 (stereo not shown)", 220),
]

* * *

measurement description: Single dose pharmacokinetics in mice
Type: in vivo, mouse
details: female, heterozygous Foxn1nu/Foxn1+, mouse, muscle, iv, 4 mg/kg
quantity name: Tmax (min)

# molecule, quantity name, result unit, recorded value
measured = [
    ("COc1ccc(C2=Nn3c(nnc3-c3cc(-c4ccc(Cl)cc4)n[nH]3)SC2C)cc1 (stereo not shown)", "Tmax", "min", 15),
]

* * *

measurement description: Single dose pharmacokinetics in mice
Assay type: in vivo, mouse
details: female, heterozygous Foxn1nu/Foxn1+, mouse, liver, po, 4 mg/kg
quantity name: AUC(0-t)

# compound, recorded value
rows = [
    ("COc1ccc(C2=Nn3c(nnc3-c3cc(-c4ccc(Cl)cc4)n[nH]3)SC2C)cc1 (stereo not shown)", "300 ng·h/mL"),
]

* * *

measurement description: Single dose pharmacokinetics in mice
Assay type: in vivo, mouse
details: female, heterozygous Foxn1nu/Foxn1+, mouse, red blood cells, po, 4 mg/kg

# molecule, AUC(0-t), ng·h/mL
data = [
    ("COc1ccc(C2=Nn3c(nnc3-c3cc(-c4ccc(Cl)cc4)n[nH]3)SC2C)cc1 (stereo not shown) [UPCDC-10205]", 23.5),
]

* * *

measurement description: Single dose pharmacokinetics in mice
Type: in vivo, mouse
details: female, heterozygous Foxn1nu/Foxn1+, mouse, plasma, po, 30 mg/kg, Cmax, mice, PO 30 mg/kg suspension in 1% CMC, plasma

# molecule, Cmax, ng/mL
rows = [
    ("COc1ccc(C2=Nn3c(nnc3-c3cc(-c4ccc(Cl)cc4)n[nH]3)SC2C)cc1 (stereo not shown) [UPCDC-10205]", 6.7),
]

* * *

measurement description: Single dose pharmacokinetics in mice
Assay type: in vivo, mouse
details: female, heterozygous Foxn1nu/Foxn1+, mouse, kidney, iv, 4 mg/kg

# compound, Tmax [min]
rows = [
    ("COc1ccc(C2=Nn3c(nnc3-c3cc(-c4ccc(Cl)cc4)n[nH]3)SC2C)cc1 (stereo not shown)", 5),
]

* * *

measurement description: Single dose pharmacokinetics in mice
Assay type: in vivo, mouse
details: female, heterozygous Foxn1nu/Foxn1+, mouse, plasma, po, 4 mg/kg

# compound, AUC(0-t) (ng·h/mL)
measured = [
    ("COc1ccc(C2=Nn3c(nnc3-c3cc(-c4ccc(Cl)cc4)n[nH]3)SC2C)cc1 (stereo not shown) [UPCDC-10205]", 52.1),
]

* * *

measurement description: Single dose pharmacokinetics in mice
Format: in vivo, mouse
details: female, heterozygous Foxn1nu/Foxn1+, mouse, skeletal muscle, po, 4 mg/kg

# compound, result unit, Tmax
rows = [
    ("COc1ccc(C2=Nn3c(nnc3-c3cc(-c4ccc(Cl)cc4)n[nH]3)SC2C)cc1 (stereo not shown)", "h", 1),
]

* * *

measurement description: Plasma protein binding by rapid equilibrium dialysis
Format: in vitro ADME, mouse
details: mouse, plasma, pH 7.2, plasma protein binding, mouse plasma spiked at 1,000 ng/mL, RED, 37 °C, 4 hours; calculated using the LLQ value (1 ng/mL)
quantity name: fraction unbound at 4 h, 1000 ng/mL

# compound, recorded value
data = [
    ("COc1ccc(C2=Nn3c(nnc3-c3cc(-c4ccc(Cl)cc4)n[nH]3)SC2C)cc1 (stereo not shown) [UPCDC-10205]", "< 0.0009"),
]

* * *

measurement description: Single dose pharmacokinetics in mice
Type: in vivo, mouse
details: female, heterozygous Foxn1nu/Foxn1+, mouse, liver, iv, 4 mg/kg

# compound, AUC(0-t) [µg·h/mL]
data = [
    ("COc1ccc(C2=Nn3c(nnc3-c3cc(-c4ccc(Cl)cc4)n[nH]3)SC2C)cc1 (stereo not shown)", 1.47),
]

* * *

measurement description: Single dose pharmacokinetics in mice
Format: in vivo, mouse
details: female, heterozygous Foxn1nu/Foxn1+, mouse, kidney, po, 4 mg/kg, Cmax, mice, PO 4 mg/kg in 10% Solutol HS, kidney

# compound, result unit, Cmax
measured = [
    ("COc1ccc(C2=Nn3c(nnc3-c3cc(-c4ccc(Cl)cc4)n[nH]3)SC2C)cc1 (stereo not shown)", "ng/mL", 308),
]

* * *

measurement description: Plasma protein binding by rapid equilibrium dialysis
Type: in vitro ADME, mouse
details: mouse, plasma, pH 7.2, plasma protein binding, mouse plasma spiked at 1,000 ng/mL, RED, 37 °C, 4 hours; calculated using 0.2 ng/mL
quantity name: fraction unbound at 4 h, 1000 ng/mL

# compound, recorded value
data = [
    ("COc1ccc(C2=Nn3c(nnc3-c3cc(-c4ccc(Cl)cc4)n[nH]3)SC2C)cc1 (stereo not shown)", "~0.0002"),
]

* * *

measurement description: Single dose pharmacokinetics in mice
Format: in vivo, mouse
details: female, heterozygous Foxn1nu/Foxn1+, mouse, liver, po, 30 mg/kg

# molecule, Tmax / min
measured = [
    ("COc1ccc(C2=Nn3c(nnc3-c3cc(-c4ccc(Cl)cc4)n[nH]3)SC2C)cc1 (stereo not shown) [UPCDC-10205]", 5),
]

* * *

measurement description: Single dose pharmacokinetics in mice
Format: in vivo, mouse
details: female, heterozygous Foxn1nu/Foxn1+, mouse, lung, po, 4 mg/kg

# molecule, Tmax
measured = [
    ("COc1ccc(C2=Nn3c(nnc3-c3cc(-c4ccc(Cl)cc4)n[nH]3)SC2C)cc1 (stereo not shown) [UPCDC-10205]", "4.98 min"),
]

* * *

measurement description: Single dose pharmacokinetics in mice
Assay type: in vivo, mouse
details: female, heterozygous Foxn1nu/Foxn1+, mouse, plasma, iv, 4 mg/kg
quantity name: AUC(0-inf) (ng·h/mL)

# compound, recorded value
data = [
    ("COc1ccc(C2=Nn3c(nnc3-c3cc(-c4ccc(Cl)cc4)n[nH]3)SC2C)cc1 (stereo not shown) [UPCDC-10205]", 1020),
]

* * *

measurement description: Single dose pharmacokinetics in mice
Type: in vivo, mouse
details: female, heterozygous Foxn1nu/Foxn1+, mouse, lung, iv, 4 mg/kg, Cmax, mice, IV 4 mg/kg in 10% Solutol HS, lung

# compound, Cmax
data = [
    ("COc1ccc(C2=Nn3c(nnc3-c3cc(-c4ccc(Cl)cc4)n[nH]3)SC2C)cc1 (stereo not shown)", "4490 ng/mL"),
]

* * *

measurement description: Single dose pharmacokinetics in mice
Assay type: in vivo, mouse
details: female, heterozygous Foxn1nu/Foxn1+, mouse, muscle, po, 30 mg/kg
quantity name: Tmax (min)

# compound, recorded value
data = [
    ("COc1ccc(C2=Nn3c(nnc3-c3cc(-c4ccc(Cl)cc4)n[nH]3)SC2C)cc1 (stereo not shown)", 5),
]
